Source of measurements: the supplement of paper PMC8975748

Tested on: Saccharomyces cerevisiae BY4741 SeMeCo community
Run Description: z-score of subpopulation abundance vs DMSO median, subpopulation auxotrophic for HL; higher = larger share of this subpopulation than in DMSO controls
Condition Description: 10 µM; 24 h; SM minimal medium; subpopulation (auxotrophy): HL
Structures can show the parent of a compound that is named as a salt.
Assign Fulfilled whenever z-score of subpopulation abundance does not fall below -0.3; assign Not fulfilled whenever it does.

Consider the worked cases shown below.
Molecule	Label Class
COC(=O)C1=CCCN(C)C1	Fulfilled
CNC1CC(N)C(O)C(OC2OC(CO)C(O)C3OC4(OC(C(N)CO)C(O)C(O)C4O)OC23)C1O (stereo not drawn)	Fulfilled

Ask: z-score of subpopulation abundance >= -0.3 for `Oc1cc(Cl)ccc1Oc1ccc(Cl)cc1Cl` ?
Reply: Not fulfilled

Ask: Check if z-score of subpopulation abundance >= -0.3 (inclusive). Item: C[C@H]1O[C@H](O[C@H]2[C@H](O)[C@@H](O)[C@@H](O)[C@H](O)[C@@H]2O)[C@@H](N)C[C@@H]1NC(=N)C(=O)O [Kasugamycin hydrochloride]
Reply: Fulfilled

Ask: Confirm if z-score of subpopulation abundance reported for the molecule CCN(C)C(=O)Oc1cccc([C@H](C)N(C)C)c1 [Rivastigmine Tartrate] is -0.3 or above.
Reply: Fulfilled

Ask: Does CCN(CC)CCOC(=O)C(O)(c1ccccc1)c1ccccc1 [Benactyzine hydrochloride] have a reported z-score of subpopulation abundance of at least -0.3?
Reply: Not fulfilled

Ask: Hi, just wondering whether `COc1ccc2[nH]cc(CCN)c2c1` shows z-score of subpopulation abundance of -0.3 or higher.
Reply: Not fulfilled

Ask: Does z-score of subpopulation abundance meet or surpass -0.3 for `CC[C@H]1CN2CC[C@]3(C(=O)Nc4ccccc43)[C@@H]2C[C@@H]1/C(=C\OC)C(=O)OC` ?
Reply: Fulfilled

----------
System: Saccharomyces cerevisiae BY4741 SeMeCo community
Run Description: z-score of subpopulation abundance vs DMSO median, subpopulation auxotrophic for U; higher = larger share of this subpopulation than in DMSO controls
Condition Description: 10 µM; 24 h; SM minimal medium; subpopulation (auxotrophy): U
Counter-ions that a name gives are not always drawn.
The following molecules are shown together with reported z-score of subpopulation abundance values.
Would you mind answering with just the numeric figure?

Some solved entries appear below for comparison.
Molecule	z-score of subpopulation abundance
CC(NC(C)(C)C)C(=O)c1cccc(Cl)c1 (stereo not drawn) [Amfebutamone (Bupropion) HCl]	0.11
CC(C)=CCOc1c2occc2cc2ccc(=O)oc12	0.23
O=C(O[C@H]1C[C@H]2CC[C@@H](C1)[N+]21CCCC1)C(O)(c1ccccc1)c1ccccc1 [Trospium chloride]	-0.17
CN(C)[C@@H]1C(=O)C(C(N)=O)=C(O)[C@@]2(O)C(=O)C3=C(O)c4c(O)cccc4[C@@](C)(O)[C@H]3[C@H](O)[C@@H]12 [Oxytetracycline Dihydrate]	0.11

Record N#Cc1nn(-c2c(Cl)cc(C(F)(F)F)cc2Cl)c(N)c1[S+]([O-])C(F)(F)F (stereo not drawn) . Reported z-score of subpopulation abundance: -0.36

// recorded z-score of subpopulation abundance for `C=C(C)[C@H]1Cc2c(ccc3c2O[C@@H]2COc4cc(OC)c(OC)cc4[C@@H]2C3=O)O1` : -0.02

The recorded z-score of subpopulation abundance for entry `CC[C@@H](C(N)=O)N1CCCC1=O` equals 0

Input `CC(C)(O)C(Cl)(Cl)Cl` . Output z-score of subpopulation abundance: 0.13

----------
Tested on: Saccharomyces cerevisiae BY4741 SeMeCo community
Run Description: z-score of prototroph abundance vs DMSO median; higher = larger share of this subpopulation than in DMSO controls
Condition Description: 10 µM; 24 h; SM minimal medium; subpopulation (auxotrophy): Prototroph
Where a name gives a salt, the structure may show the parent alone.
Experimental Endpoint: z-score of prototroph abundance

Compound	Measured Target	z-score of prototroph abundance
CCOC(=O)Nc1ccc(NCc2ccc(F)cc2)cc1N [Retigabine]	Saccharomyces cerevisiae BY4741 SeMeCo community	0.21
CCN(C)C(=O)Oc1cccc([C@H](C)N(C)C)c1 [Rivastigmine]	Saccharomyces cerevisiae BY4741 SeMeCo community	-0.39
CN(C)[C@@H]1C(=O)C(C(N)=O)=C(O)[C@@]2(O)C(=O)C3=C(O)c4c(O)cccc4[C@@](C)(O)[C@H]3[C@H](O)[C@@H]12 [Oxytetracycline (Terramycin)]	Saccharomyces cerevisiae BY4741 SeMeCo community	-0.34
C[CH2][Hg][S]c1ccccc1C(=O)[O-].[Na+] [Thimerosal]	Saccharomyces cerevisiae BY4741 SeMeCo community	-17.3
CCC1=C[C@H]2CN3CCc4c([nH]c5ccccc45)[C@](C(=O)OC)(C2)[C@H]13 [Catharanthine]	Saccharomyces cerevisiae BY4741 SeMeCo community	0.37
CN(C)[C@@H]1C(=O)C(C(N)=O)=C(O)[C@@]2(O)C(=O)C3=C(O)c4c(O)ccc(Cl)c4[C@@](C)(O)[C@H]3C[C@@H]12 [Chlortetracycline HCl]	Saccharomyces cerevisiae BY4741 SeMeCo community	0.13

z-score of prototroph abundance of COc1cc2c(cc1OC)C1CC(=O)C(CC(C)C)CN1CC2 (stereo not drawn) [Tetrabenazine (Xenazine)] , assay on Saccharomyces cerevisiae BY4741 SeMeCo community, is 0.02

So the reported z-score of prototroph abundance for C[N+]12CCC(CC1)C(OC(=O)C(O)(c1ccccc1)c1ccccc1)C2 (stereo not drawn) [Clidinium Bromide] , on Saccharomyces cerevisiae BY4741 SeMeCo community, turned out to be 0.13

# lookup: O=c1cccc2n1C[C@@H]1CNC[C@H]2C1 [Cytisine] on Saccharomyces cerevisiae BY4741 SeMeCo community, z-score of prototroph abundance = 0.46

Response field z-score of prototroph abundance (Saccharomyces cerevisiae BY4741 SeMeCo community) for item CN1[C@@H]2CC[C@H]1C[C@@H](OC(=O)C(CO)c1ccccc1)C2 (stereo partly drawn) [Atropine sulfate monohydrate] : 0.64

Item CN1c2ccccc2C(NCCCCCCC(=O)O)c2ccc(Cl)cc2S1(=O)=O (stereo not drawn) [Tianeptine sodium] ; assay system Saccharomyces cerevisiae BY4741 SeMeCo community; z-score of prototroph abundance reported as 0

Tested on Saccharomyces cerevisiae BY4741 SeMeCo community: CN[C@@H]1[C@@H](O)[C@@H](O[C@@H]2[C@@H](O)[C@H](O[C@H]3O[C@H](CN)CC[C@H]3N)[C@@H](N)C[C@H]2N)OC[C@]1(C)O.CN[C@@H]1[C@@H](O)[C@@H](O[C@@H]2[C@@H](O)[C@H](O[C@H]3O[C@H]([C@@H](C)N)CC[C@H]3N)[C@@H](N)C[C@H]2N)OC[C@]1(C)O.CN[C@@H]1[C@@H](O)[C@@H](O[C@@H]2[C@@H](O)[C@H](O[C@H]3O[C@H]([C@@H](C)NC)CC[C@H]3N)[C@@H](N)C[C@H]2N)OC[C@]1(C)O [Gentamicin Sulfate] . Observed z-score of prototroph abundance: 0.63

Known value: Saccharomyces cerevisiae BY4741 SeMeCo community z-score of prototroph abundance of the compound Cc1cc(C(C#N)c2ccc(Cl)cc2)c(Cl)cc1NC(=O)c1cc(I)cc(I)c1O (stereo not drawn) [Closantel] equals 0

----------
System: Saccharomyces cerevisiae BY4741 SeMeCo community
Run Description: z-score of subpopulation abundance vs DMSO median, subpopulation auxotrophic for LM; higher = larger share of this subpopulation than in DMSO controls
Condition Description: 10 µM; 24 h; SM minimal medium; subpopulation (auxotrophy): LM
Counter-ions that a name gives are not always drawn.
Would you please tag the item 1.0 when its z-score of subpopulation abundance is -0.3 or above, and 0.0 when it is below?

Compound	Label Class
CCN1CC2(OC(=O)c3ccccc3NC(C)=O)CCC(OC)C34C1C(CC23)C1(O)CC(OC)C2CC4C1(O)C2OC (configuration not stated)	0.0
CN(C)C(=O)Oc1ccc[n+](C)c1 [Pyridostigmine Bromide]	0.0
COc1ccc2[nH]cc(CCN)c2c1	1.0

Ask: # check: z-score of subpopulation abundance of `Nc1ccncc1` is greater than or equal to -0.3
Reply: 1.0

Ask: In plain terms: is recorded z-score of subpopulation abundance at least -0.3 for C[C@H]1O[C@H](O[C@H]2[C@H](O)[C@@H](O)[C@@H](O)[C@H](O)[C@@H]2O)[C@@H](N)C[C@@H]1NC(=N)C(=O)O [Kasugamycin hydrochloride] ?
Reply: 1.0

Ask: Is z-score of subpopulation abundance for CN(C)[C@@H]1C(=O)C(C(N)=O)=C(O)[C@@]2(O)C(=O)C3=C(O)c4c(O)ccc(Cl)c4[C@@](C)(O)[C@H]3C[C@@H]12 [Chlortetracycline HCl] at or above -0.3?
Reply: 0.0

Ask: Please tell me: is the compound CN(C)[C@@H]1C(=O)C(C(N)=O)=C(O)[C@@]2(O)C(=O)C3=C(O)c4c(O)cccc4[C@@](C)(O)[C@H]3[C@H](O)[C@@H]12 [Oxytetracycline Dihydrate] at or over -0.3 in terms of z-score of subpopulation abundance?
Reply: 0.0
